Biological target: Tg244440 (Toxoplasma gondii, UniProt A0A125YNC9)
Sequence (A0A125YNC9 1-462): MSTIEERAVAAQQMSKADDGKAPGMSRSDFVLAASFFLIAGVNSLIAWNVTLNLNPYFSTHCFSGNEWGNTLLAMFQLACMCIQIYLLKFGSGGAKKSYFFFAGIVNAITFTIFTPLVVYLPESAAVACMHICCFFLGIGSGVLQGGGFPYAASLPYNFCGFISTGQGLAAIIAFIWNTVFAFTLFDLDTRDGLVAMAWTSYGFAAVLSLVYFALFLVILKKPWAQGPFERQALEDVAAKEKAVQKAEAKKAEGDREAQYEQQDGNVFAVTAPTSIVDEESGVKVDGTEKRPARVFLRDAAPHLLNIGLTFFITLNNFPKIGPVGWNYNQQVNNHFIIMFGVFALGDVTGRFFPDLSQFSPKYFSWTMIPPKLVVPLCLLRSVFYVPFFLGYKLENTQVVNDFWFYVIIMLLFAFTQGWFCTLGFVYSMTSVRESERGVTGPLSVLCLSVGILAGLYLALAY
Experiment: [3H]-guanine uptake and its inhibition in T. brucei TbNB-KO procyclics expressing Tg244440 (clone F5)
Type: cell-based
Procedure: Briefly, PCF cells of T. brucei in logarithmic growth were harvested by centrifugation at 1000× g for 10 min, washed twice in AB and then resuspended in fresh buffer at a final density of 10^8 cells/mL. […] The next morning, the vials were vigorously shaken to ensure optimal mixing and the scintillation was measured in a 300SL (Hidex) scintillation counter. […]

entry.smiles | Affinity for Tg244440 (in words)
OC[C@H]1O[C@@H](n2cc(Cl)c3c(O)ncnc32)[C@H](O)[C@@H]1O | high affinity
Nc1ncnc2c1ncn2[C@@H]1O[C@H](CO)[C@@H](O)[C@H]1O | Low affinity
OC[C@H]1O[C@@H](n2cc(Br)c3c(O)ncnc32)[C@H](O)[C@@H]1O | high affinity
Nc1ncnc2[nH]cnc12 | Low affinity
